# test summary: NCI Yeast Anticancer Drug Screen. Data for the mec2-1 strain (AID 157)
# conditions: S. cerevisiae mec2-1 strain, at 50.0 µM, active compounds read high
About 79,000 compounds went through this panel and 15% of them were active in at least one assay; those are over-represented in the sample as a whole.
Reported growth inhibition values for a set of compounds
readout label: growth inhibition (%)

INSERT INTO measurements (compound, readout_label, value) VALUES
  ('O=S(CC(O)(c1ccccc1)c1ccccc1)c1ccccc1 (configuration not stated)', 'growth inhibition', 14.4),
  ('C=C(Br)CN1CCC2(c3ccccc3)C(=O)C([Se]c3ccccc3)CCC12 (configuration not stated)', 'growth inhibition', 8.15),
  ('Cc1c(C)c(Cl)c(C)c(C(Cl)(Cl)Cl)c1C', 'growth inhibition', -1.3),
  ('CCOC(=O)n1ccnc1', 'growth inhibition', -5.45),
  ('CCO/N=C(/N)c1ncn(Cc2ccccc2)c1NCC(OCC)OCC', 'growth inhibition', 1.15),
  ('Cc1csc2n(C)c(=O)c3ccccc3[n+]12', 'growth inhibition', 9.4),
  ('CCOC(=O)c1cc(CC)[nH]c(=O)c1C#N', 'growth inhibition', 8.05),
  ('C1CSCC2(COC2)CSCCSCC2(COC2)CS1', 'growth inhibition', -13.4),
  ('CCn1c2ccccc2c2cc(N)c(N=Nc3ccc(-c4ccc(N)c(OC)c4)cc3OC)cc21', 'growth inhibition', 0.65),
  ('O=C(CN1CCC(O)(c2ccccc2)CC1)N1CCN(/C=C/c2ccccc2)CC1', 'growth inhibition', -0.45),
  ('Cn1c2ccccc2c(=O)c2c(O)cc3c(c21)CC(C1(C)CO1)O3 (configuration not stated)', 'growth inhibition', 79.6),
  ('Cc1c(O)c2ccc3ccccc3c2oc1=O', 'growth inhibition', 5.75);

----------
# test summary: NCI Yeast Anticancer Drug Screen. Data for the mec2-1 strain (AID 157)
# conditions: S. cerevisiae mec2-1 strain, at 50.0 µM
This is part of a sample that, as a whole, favours compounds with a hit. Of some 79,000 tested, about 15% had one in any assay. Calls of active or inactive are those of the source. No stated cut-off is given here; in the data, active means growth inhibition above about 70%; inactive means the rest. Where a SMILES comes first, the peptide text is derived from it. [ ]: non-standard residue; d: D form. The star is where a group is joined. Phe(4-NO2) = N[CH](Cc1ccc([N+](=O)[O-])cc1)C(=O)O; Boc = CC(C)(C)OC(=O)*
Classes used: active, inactive

INSERT INTO assay_data (compound, group_label) VALUES
  ('O=C1C(=O)C(c2ccccc2)S(=O)(=O)C1c1ccccc1 (stereo not drawn)', 'inactive'),
  ('O=C(O)c1ccccc1NCn1c(=S)sc2ccccc21', 'inactive'),
  ('[O-]c1c(Cl)c(Cl)c(O[P+](c2ccccc2)(c2ccccc2)c2ccccc2)c(Cl)c1Cl', 'active'),
  ('O=[N+]([O-])c1cccc(C(O)(C(F)(F)F)C(F)(F)F)c1', 'inactive'),
  ('CSCNC(=O)Nc1ccccc1', 'inactive'),
  ('C1=C(c2ccccc2)c2ccccc2CC1', 'inactive'),
  ('c1ccc(CNCCN(Cc2ccccc2)Cc2ccccc2)cc1', 'inactive'),
  ('NC(=O)C(=O)N/N=C1\C(=O)N(c2ccc(Cl)cc2Cl)C(=O)C1C(=O)Nc1ccc(Cl)cc1Cl (stereo not drawn)', 'inactive'),
  ('CC(C)N(C(=O)C12C3C4C1C1C2C3C41C(=O)C(C)(C)C)C(C)C (stereo not drawn)', 'inactive'),
  ('CC(=O)OC1CCC2(C)C(CCC3C2CCC2(C)C(c4cccc(=O)o4)CCC32)C1 (stereo not drawn)', 'inactive'),
  ('Cc1cc(Br)cc(C)c1NC(=O)C(=O)Nn1c(=S)[nH]c2ccccc2c1=O', 'inactive'),
  ('CCCN(CCC)C(=O)c1c(Cl)c2cccnc2n2c(C)cnc12', 'inactive'),
  ('CS(=O)(=O)Cc1cc(-c2ccccc2)no1', 'inactive'),
  ('CC(C)C(Nc1ncnc2nc[nH]c12)C(=O)O (stereo not drawn)', 'inactive'),
  ('O=S1C=Cc2ccccc21 (stereo not drawn)', 'inactive'),
  ('CN(C)CCOC(=O)c1ccc(N)cc1', 'inactive'),
  ('O=c1[nH][nH]c(=O)c2c1nc(SCc1ccc(Br)cc1)n2Cc1ccccc1', 'inactive'),
  ('COC(=O)CCC(NC(=O)OC(C)(C)C)C(=O)NC(Cc1ccc([N+](=O)[O-])cc1)C(=O)NC(CCC(=O)OC)C(=O)OC (stereo not drawn) (Boc-Glu(OMe)-[Phe(4-NO2)]-Glu(OMe)-OMe; configuration not given here)', 'inactive'),
  ('Nc1ccc(N(S(=O)(=O)c2ccccc2)S(=O)(=O)c2ccccc2)c(Cl)c1', 'inactive'),
  ('O=C1CCCCC/C1=C\O', 'inactive'),
  ('C=CCN1C(N)=C(C#N)C(C#N)(C#N)C1CCC (stereo not drawn)', 'inactive'),
  ('Cc1ccc2cccc(-c3cccc4ccccc34)c2n1', 'inactive'),
  ('Cc1ccc(C(=O)c2c[nH]c(=O)[nH]c2=O)cc1', 'inactive');

----------
// reported growth inhibition per item
# test summary: NCI Yeast Anticancer Drug Screen. Data for the cln2 rad14 strain (AID 165);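 further: 0% = growth equal to vehicle treated cultures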
# conditions: S. cerevisiae cln2 rad14 strain, at 50.0 µM, active compounds read high
This is part of a sample that, as a whole, favours compounds with a hit. Of some 79,000 tested, about 15% had one in any assay.
readout label: growth inhibition (%)

INSERT INTO results (compound, reading_unit, value) VALUES
  ('Fc1ccc(-c2cc(-c3ccc(F)cc3)cc(-c3ccc(F)cc3)c2)cc1', '%', 14.2),
  ('O=C(O)c1ccc(S(=O)(=O)N=Nc2c(O)[nH]c3ccccc23)cc1', '%', -1.15),
  ('O=C1OC2=C(CCCCC2)C(N2CCCCC2)C12SCCCS2 (stereo unspecified)', '%', -17.3),
  ('Cc1cc(=O)c2c(C)nn(-c3ccccc3)c2[nH]1', '%', -9.15),
  ('CC(=O)C1CCCC(=O)/C=C/C(=O)O1 (stereo unspecified)', '%', 5.8),
  ('CC(C)(C)/[N+]([O-])=C/C1(C2(/C=[N+](\[O-])C(C)(C)C)Cc3ccccc3C2=O)Cc2ccccc2C1=O (stereo unspecified)', '%', 15.6);

----------
# test summary: NCI Yeast Anticancer Drug Screen. Data for the mlh1 rad18 strain (AID 175)
# conditions: S. cerevisiae mlh1 rad18 strain growth inhibition; at 50.0 µM; active compounds read high
Compounds without any hit were thinned out: in the full panel of roughly 79,000, 15% have a hit.
readout label: growth inhibition (%)

INSERT INTO measurements (compound, reading_unit, value) VALUES
  ('CC1(O)C(O)C(O)C1(O)CO (stereo not given) (tested in a mixture with another compound)', '%', -4.9),
  ('OC1CCCCC1C1CCCCC1 (stereo not given)', '%', 26.7),
  ('OCC1OC(n2nc(-c3ccccc3)nc2-c2cnccn2)C(O)C(O)C1O (stereo not given)', '%', -43.5),
  ('CN(C)C=N[C@@H](C(=O)O)c1ccccc1', '%', 9.8),
  ('C=C(CCC(Cl)C(COS(=O)(=O)c1ccc(C)cc1)OC(CCCO[Si](c1ccccc1)(c1ccccc1)C(C)(C)C)OCC)[Si](C)(C)C (stereo not given)', '%', 58.4);

----------
# test summary: NCI Yeast Anticancer Drug Screen. Data for the mec2-1 strain (AID 157)
# conditions: S. cerevisiae mec2-1 strain, at 50.0 µM, active compounds read high
About 79,000 compounds went through this panel and 15% of them were active in at least one assay; those are over-represented in the sample as a whole. Calls of active or inactive are those of the source. Rule as the data show it: active = growth inhibition above about 70%; inactive = the rest.
Recorded measurements of growth inhibition, one per entry
readout label: growth inhibition

INSERT INTO assay_data (compound, readout_label, value) VALUES
  ('C=CCCCCCCCCC(=O)Nc1cc2c3c(c1)CCCN3CCC2', 'growth inhibition', '8.75% (inactive)'),
  ('O=C(CC(=O)c1ccccc1)Nc1cccnc1', 'growth inhibition', '8.9% (inactive)'),
  ('CCCCC1(N=[N+]=[N-])C(=O)c2cccc3c2N(CCC3)C1=O (configuration not stated)', 'growth inhibition', '30.9% (inactive)'),
  ('COc1cc([N+](=O)[O-])c(C)cc1Br', 'growth inhibition', '3.75% (inactive)'),
  ('C1=C2/CC[C@H](Sc3ccccc3)[C@H]2C2(CCCCC/1)OCCO2', 'growth inhibition', '-19% (inactive)'),
  ('CN(C)C(=O)C1CCNCC1', 'growth inhibition', '-2.1% (inactive)'),
  ('O=C(COc1ccccc1[N+](=O)[O-])Nc1cccnc1', 'growth inhibition', '-10.8% (inactive)'),
  ('O=C1N(c2ccccc2)C(=O)C2(SC=NN2Cc2ccccc2)N1c1ccccc1 (configuration not stated)', 'growth inhibition', '2% (inactive)'),
  ('C#CCCC#C', 'growth inhibition', '-17.3% (inactive)'),
  ('O=C(OC1COC(n2c(=O)oc3cc(Br)c(Cl)cc32)C(OC(=O)c2ccccc2)C1OC(=O)c1ccccc1)c1ccccc1 (configuration not stated)', 'growth inhibition', '-2.25% (inactive)'),
  ('O=C(/C=C/c1ccccc1Cl)c1ccc(Cl)c(Cl)c1', 'growth inhibition', '0.2% (inactive)'),
  ('Cc1c(Cl)cccc1NC(=O)OC/C=C/c1ccccc1', 'growth inhibition', '33.2% (inactive)');
